- Experimental protocol: HTB85 osteosarcoma cell growth inhibition, synergistic combos for chromothripsis tumors, BGB or cisplatin IC20 combos (AID 1671453);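 further: cells exposed for 96 hours before readout; 0% = vehicle DMSO and 100% = high DMSO killing control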
- Condition info: HTB85 osteosarcoma cells, drug combinations, measured here: with cisplatin IC20, at 0.5 µM, stronger effect = higher value
We use -10% as the dividing line for inhibition: on or above the line is Met, below is Not met.

>  <Compound>
O=C(O)CCCc1ccc(N(CCCl)CCCl)cc1

>  <Class>
Not met

$$$$
>  <Compound>
CC1(C)C(C(=O)Nc2ccc(S(=O)(=O)c3ccc(NC(=O)C4C(C)(C)C4(C)C)cc3)cc2)C1(C)C

>  <Class>
Not met

$$$$
>  <Compound>
Cn1c(COP(=O)(NCCBr)NCCBr)cnc1[N+](=O)[O-]

>  <Class>
Met

$$$$
>  <Compound>
O=P(O)(NCCCl)NCCCl

>  <Class>
Not met

$$$$
>  <Compound>
Cn1c(CCCC(=O)O)nc2cc(N(CCCl)CCCl)ccc21

>  <Class>
Not met

$$$$
>  <Compound>
Cc1c2ccncc2c(C)c2c1[nH]c1ccccc12

>  <Class>
Not met

$$$$
>  <Compound>
NC(Cc1ccc(N(CCCl)CCCl)cc1)C(=O)O (centres undefined)

>  <Class>
Not met

$$$$
>  <Compound>
O=C1CCC[C@@H]2[C@H]3CCCN4CCC[C@@H](CN12)[C@@H]34

>  <Class>
Met

$$$$

// next entry
Answer whether inhibition of `CN(C)NC(=O)CCC(=O)O` is greater than or equal to -10%. Met

* * *

- Experimental protocol: HDN33 neuroblastoma growth inhibition, cell-based, chromothripsis tumors, cisplatin or BGB combos (AID 1671450);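 further: cells exposed to compound for four days; 0% = vehicle DMSO and 100% = cell killing by high DMSO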
- Condition info: HDN33 neuroblastoma cells, BGB combo, at 5 µM, stronger effect = higher value
Reported metric: inhibition (%)
# unit: % | format: bare number

Worked cases, answers included:
>  <Compound>
O=P(O)(NCCCl)NCCCl

>  <inhibition / %>
-3.04

$$$$
>  <Compound>
Cn1c(COP(=O)(NCCBr)NCCBr)cnc1[N+](=O)[O-]

>  <inhibition / %>
19.8

$$$$
>  <Compound>
CCC1(c2ccccc2)C(=O)NC(=O)NC1=O

>  <inhibition / %>
-9.62

$$$$
>  <Compound>
Cc1c2ccncc2c(C)c2c1[nH]c1ccccc12

>  <inhibition / %>
71.9

$$$$
>  <Compound>
COc1cc(C2c3cc4c(cc3C(O)C3COC(=O)C23)OCO4)cc(OC)c1OC (stereo unspecified)

>  <inhibition / %>
67.6

$$$$

Turning to the following compound.
What value of inhibition has been reported for the following compound? `O=C(O)CCCc1ccc(N(CCCl)CCCl)cc1` -4.28

* * *

- Experimental protocol: sensitizers of A549 cells to miR-34 induction, primary screen, imaging, A549 dox-inducible miR-34, nuclei and caspase counts (AID 1347080)
- Condition info: A549 miR-34 inducible, Hoechst nuclei count, 48 h; measured here: relative caspase fold change +Dox/-Dox
Catalogue of fold change values

>  <Molecule>
CC(Cc1ccccc1)NCCC(c1ccccc1)c1ccccc1 (stereo unspecified)

>  <fold change>
0.226

$$$$
>  <Molecule>
CCOP(=S)(OCC)Oc1nc(Cl)c(Cl)cc1Cl

>  <fold change>
1.26

$$$$
>  <Molecule>
O=C(O)CC[N+](=O)[O-]

>  <fold change>
2.1

$$$$
>  <Molecule>
C/C1=C/C(=O)O[C@@H]2C[C@@H](CC[C@H](C)/C=C\CC1)O[C@@](O)([C@@H]1CSC(=O)N1)C2

>  <fold change>
0.63

$$$$

What value of fold change has been reported for the following molecule? CC(C(=O)OC1CC2CCC(C1)N2C)c1ccc(Br)cc1 (stereo unspecified) 0.964

What value of fold change has been reported for the following molecule? O=C(NCNC(=O)NC1C(=O)NC(=O)N1CO)NC1C(=O)NC(=O)N1CO (stereo unspecified) 0.72

Cited source for all entries: PubChem BioAssay
